Values were extracted from patent US4476129A.

Reported ED50 by item:
Tested on: stereotyped behaviour in female Wistar rats
Test: Stereotypy in the rat (stereotyped behaviour)
Assay type: in vivo
Settings: Rattus norvegicus, po, 50% of the maximal effect, observed 15-300 minutes after administration
Structures can show the parent of a compound that is named as a salt.
Readout label: ED50

compound="O=C(CCCN1CCN(CCOC(c2ccc(F)cc2)c2ccc(F)cc2)CC1)c1ccc(F)cc1 [Compound 15, dihydrochloride]" assayed_system="stereotyped behaviour in female Wistar rats" measured="> 46 mg/kg"
compound="OC(Cc1ccccc1)CN1CCN(CCOC(c2ccc(F)cc2)c2ccc(F)cc2)CC1 (stereo not drawn) [Compound 4]" assayed_system="stereotyped behaviour in female Wistar rats" measured="~6 mg/kg"
compound="O=C(CCN1CCN(CCOC(c2ccc(F)cc2)c2ccc(F)cc2)CC1)c1ccccc1 [Compound 11]" assayed_system="stereotyped behaviour in female Wistar rats" measured="< 5.5 mg/kg"
